These data points were gathered from patent US11634417B2.

Molecular target: full-length SHP2 (Homo sapiens)
Construct: 1 nM full-length SHP2 (His6-tagged SHP2(2-527), recombinantly expressed in E. coli and purified in-house); His6
Sequence (Q06124 2-527): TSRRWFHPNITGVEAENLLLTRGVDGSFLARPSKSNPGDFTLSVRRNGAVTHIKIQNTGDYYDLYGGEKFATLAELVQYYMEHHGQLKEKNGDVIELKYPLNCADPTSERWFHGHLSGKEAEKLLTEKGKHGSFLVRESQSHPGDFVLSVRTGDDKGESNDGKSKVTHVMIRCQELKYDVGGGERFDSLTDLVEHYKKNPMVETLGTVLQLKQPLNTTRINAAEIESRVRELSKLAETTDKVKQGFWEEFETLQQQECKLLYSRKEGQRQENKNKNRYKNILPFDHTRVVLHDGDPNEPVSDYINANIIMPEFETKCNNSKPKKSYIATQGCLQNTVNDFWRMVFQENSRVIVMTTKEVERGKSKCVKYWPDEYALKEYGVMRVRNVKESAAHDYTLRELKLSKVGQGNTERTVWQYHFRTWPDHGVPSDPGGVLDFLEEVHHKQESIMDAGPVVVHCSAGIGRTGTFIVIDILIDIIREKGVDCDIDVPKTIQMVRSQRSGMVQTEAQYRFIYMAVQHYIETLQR
Experiment: SHP2 enzymatic assay (fluorescence intensity kinetic assay, DiFMUP hydrolysis)
Conditions: 1 nM His6-tagged SHP2(2-527), 1 μM activating peptide, 50 μM DiFMUP; single assay or mean of multiple assays; read-out: Biological Example 1 IC50
measure: IC50 (nM)

Here's what some known entries look like.
>  <compound>
N[C@@H]1c2ccccc2CC12CCN(c1ncc(Sc3ccnc(C(F)(F)F)c3Cl)nn1)CC2

>  <target or system>
full-length SHP2 (Homo sapiens)

>  <unit abbrev>
nM

>  <IC50>
93

$$$$
>  <compound>
COc1nccc(Sc2cnc(N3CCC4(CC3)Cc3ccccc3[C@H]4N)nn2)c1Cl

>  <target or system>
full-length SHP2 (Homo sapiens)

>  <unit abbrev>
nM

>  <IC50>
116

$$$$
>  <compound>
Nc1c(Cl)c(Sc2cnc(N3CCC4(CC3)Cc3ccccc3[C@H]4N)nn2)cc[n+]1[O-]

>  <target or system>
full-length SHP2 (Homo sapiens)

>  <unit abbrev>
nM

>  <IC50>
79

$$$$
>  <compound>
Cc1nc(N2CCC3(CC2)CO[C@@H](C)[C@H]3N)nnc1Sc1cccc(Cl)c1Cl

>  <target or system>
full-length SHP2 (Homo sapiens)

>  <unit abbrev>
nM

>  <IC50>
141

$$$$

I. COc1cnc2c(c1)[C@H](N)C1(CCN(c3ncc(Sc4ccnc(N)c4Cl)nn3)CC1)C2 (single isomer, unassigned)
II. Nc1nccc(Sc2cnc(N3CCC4(CC3)Cc3cc(Cl)ccc3[C@@H]4N)nn2)c1Cl
Query block: Lab notebook, comparison: I versus II , higher IC50 goes to which? Respond using the label that marks the chosen record.
Result block: I
(I: 142 nM, II: 91 nM)
